# Experiment: folding enthalpy; higher = less favourable; fluorescence melt of hairpins on a sequencing array, two-state fit
# Cond: sodium 0.088 M
I'd appreciate it if you could supply folding enthalpy values for the items below.
Answers are plain numbers, in kcal/mol.

* GTACGGCGAAAGCCCTAC (((.(((....))).))) | -12.5
* GGTGGACGAAAGTCAACC (((.(((....))).))) | -40.3
* GTGTTGGGAAACCGATAC ((.(.((....)).).)) | -18.3

Parameter requested: folding enthalpy. Apply to each item below.
1. GATCGCTACGGCGATC ((((((....))))))
2. GGTCGCGGAAACGCGGTC (..((((....))))..)

# output
1: -40.5; 2: -13.2

Parameter requested: folding enthalpy. Apply to each item below.
1. GACATGGGAAACCATGTC (((((((....)))))))
2. GCCTCGCGAAAGCACGGC (((..((....))..)))
3. GAGAGGAAACTCTC (((((....)))))
4. GATCTTGACAAGATC ((((((...))))))
5. GCAAAAGGAAACCTTTGC (((((.(....).)))))
6. GTGGCGCCGAAAGGCCAC (((..(((....))))))
7. GATCGGGTTCCCGATC ((((((....))))))
8. GATGGGAAACCATC (((((....)))))

# output
1. -42.8
2. -22.5
3. -23.4
4. -38.6
5. -30.4
6. -13.8
7. -42.5
8. -26.5
